// data source = BindingDB's records for doi:10.7270/Q2KP80J0

target: Ephrin type-B receptor 4 (Homo sapiens)
measurement_description: EphB4-ephrin-B2 interaction antagonists, dose response, biochemical, TNYL-RAW peptide displacement (AID 835)
For each record, write down the corresponding IC50.

The cases that follow already have their IC50 on record.
INSERT INTO results (compound, result) VALUES
  ('CC1(C)Cc2ccccc2-c2nnc(SCC(=O)Nc3nc4ccccc4s3)n21 [MLS000077330]', '> 79.4 µM'),
  ('Cc1c(NC(=O)COC(=O)C(c2ccc(Cl)cc2)C(C)C)c(=O)n(-c2ccccc2)n1C (centres undefined)', '> 79.4 µM'),
  ('O=C1CN(C(=O)CN2CCCCC2)C(c2ccccc2)c2cc(Br)ccc2N1 (centres undefined)', '> 79.4 µM'),
  ('O=C(c1ccc(COc2ccccc2Cl)o1)N1CCN(Cc2ccc3c(c2)OCO3)CC1', '> 79.4 µM'),
  ('Cc1c2cc(O)c(=O)cc-2oc2cc(O)c(O)cc12 [2,6,7-Trihydroxy-9-methyl-xanthen-3-one]', '3.6 µM');

Batch request: IC50 per item, same order as input.
1. O=C(/C=C/c1cccc([N+](=O)[O-])c1)NCCN1CCOCC1
2. CC(O)c1cccc(NC(=O)CCC(=O)O)c1 (centres undefined)
3. O=C(NCCCN1CCCC1=O)NC12CC3CC(CC(C3)C1)C2 [MLS000050547]
4. O=C(Nc1ccc2c(c1)OCO2)C1CC(c2ccc(F)cc2)=NO1 (centres undefined) [MLS000520439]

["> 79.4 µM", "> 79.4 µM", "> 79.4 µM", "> 79.4 µM"]

###

Consider the following compounds; for each one, report its IC50.
target: Ephrin type-B receptor 4 (Homo sapiens, UniProt P54760)
Sequence (P54760 whole entry): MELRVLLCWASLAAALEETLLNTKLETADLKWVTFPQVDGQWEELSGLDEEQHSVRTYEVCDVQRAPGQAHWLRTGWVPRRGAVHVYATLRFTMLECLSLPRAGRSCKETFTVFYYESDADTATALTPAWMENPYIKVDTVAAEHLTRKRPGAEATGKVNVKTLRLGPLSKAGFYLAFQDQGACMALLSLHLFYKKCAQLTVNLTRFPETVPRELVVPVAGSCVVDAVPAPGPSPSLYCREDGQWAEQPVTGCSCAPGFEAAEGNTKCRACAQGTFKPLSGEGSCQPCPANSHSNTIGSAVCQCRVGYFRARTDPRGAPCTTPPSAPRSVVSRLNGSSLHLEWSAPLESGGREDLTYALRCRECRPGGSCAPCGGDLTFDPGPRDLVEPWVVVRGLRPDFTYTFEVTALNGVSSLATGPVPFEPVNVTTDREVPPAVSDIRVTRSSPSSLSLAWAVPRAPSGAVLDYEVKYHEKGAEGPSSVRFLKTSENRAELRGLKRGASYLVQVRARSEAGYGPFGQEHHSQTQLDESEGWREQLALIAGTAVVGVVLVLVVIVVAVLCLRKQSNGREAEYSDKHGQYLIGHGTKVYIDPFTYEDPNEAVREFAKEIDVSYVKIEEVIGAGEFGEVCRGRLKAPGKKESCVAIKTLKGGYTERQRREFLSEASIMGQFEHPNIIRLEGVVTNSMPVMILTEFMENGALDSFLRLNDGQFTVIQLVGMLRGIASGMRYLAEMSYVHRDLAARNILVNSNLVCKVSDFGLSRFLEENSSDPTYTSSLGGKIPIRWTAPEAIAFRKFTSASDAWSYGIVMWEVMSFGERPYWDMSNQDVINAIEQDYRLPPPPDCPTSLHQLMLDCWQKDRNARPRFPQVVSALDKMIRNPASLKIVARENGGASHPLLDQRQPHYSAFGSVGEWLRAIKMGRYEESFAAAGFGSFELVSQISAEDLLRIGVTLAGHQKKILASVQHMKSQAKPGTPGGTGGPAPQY
measurement_description: EphB4-ephrin-B2 interaction antagonists, dose response, biochemical, TNYL-RAW peptide displacement (AID 835)
details: inactive by the depositor's call
Numbers only, in µM.

INSERT INTO assay_data (item_smiles, property_measured, numeric_readout) VALUES
  ('CCn1c(CSc2nnc3ccccn23)nc2cc(C(=O)O)ccc21', 'IC50', 20.4);

As a next step, examine the compound that follows.
Quickly give me recorded IC50 for `CCNc1c2c3c(cccc3n(C)c1=O)C(=O)c1ccccc1-2` 25.7
